meta.source: a melting point compilation (Tetko et al.; mined from patent text by program, amines drawn as free bases though some values may be those of a salt)

Recorded melting point values for a group of compounds are listed next.
observed_property: melting point (°C)

query_smiles=Nc1cc(C(F)(F)F)cc(N)c1Cl observed_property="melting point" meas_value=96
query_smiles=Cn1cc2c(=O)[nH]c(=S)[nH]c2n1 observed_property="melting point" meas_value=200
query_smiles=COCCNc1nccc(-c2ccnc(Nc3cccc(Cl)c3)n2)c1Cl observed_property="melting point" meas_value=172

----------
observed_property: melting point

compound=Cc1cc(C(=O)N(C2CCCCC2)C2CCCC2)ccc1Cn1cnc2ncccc21 meas_value="191 to 192 °C"
compound="CCCN(CCC)CC1CCCN(CCNC(=O)N2c3ccccc3C(=O)Nc3cccnc32)C1 (stereo not given)" meas_value="153 to 155 °C"
compound=CCOc1cc(OC)cc(OC(=O)CC)c1C(=O)C=Cc1ccc(OC)cc1 meas_value="77.5 °C"
compound=CCCOc1ccc(Br)c2c(=O)c3ccccc3sc12 meas_value="112 to 114 °C"
compound="O=C(O)CCC1(c2cccc(Cl)c2)NC(=O)NC1=O (stereo not given)" meas_value="196 to 217 °C"
compound=CC(=O)OCCCc1cccc(-c2nc(=O)c3ccccc3s2)n1 meas_value="141 to 142 °C"
compound=CN1CCSC1=NC(=O)CCC(=O)N=C1SCCN1C meas_value="181 to 183 °C"
compound="CC(C(=O)O)C(=O)c1ncc(Cl)cc1F (stereo not given)" meas_value="101 to 102 °C"
compound="CC(C)Cc1ccc2scc(C(C)N(O)C(N)=O)c2c1 (stereo not given)" meas_value="151 to 153 °C"
compound=O=S1(=O)N=C(NCCCOc2cccc(CN3CCCCC3)c2)c2ccc(F)cc21 meas_value="139 to 163 °C"
compound=COc1cc2ncnc(N3CCN(C(=O)Nc4ccc(-n5cccc5)nc4)CC3)c2cc1OC meas_value="252 to 254 °C"
compound=COc1cc2c(cc1Nc1ncc(Cl)c(Nc3ccccc3S(=O)(=O)N(C)C)n1)CCN(CCOC(=O)CN)CC2 meas_value="77 to 79 °C"
compound=O=C(CCCCCl)c1c[nH]c2ccccc12 meas_value="165 to 167 °C"
compound=CCCN(CCC)[C@@H]1Cc2c(-c3ncco3)ccc3c2[C@H](CN3)C1 meas_value="103 to 104 °C"
compound=c1ccc2c(c1)CNc1c-2ccc2ccccc12 meas_value="186 to 188 °C"
compound=Cc1nccc(O)c1[N+](=O)[O-] meas_value="140 °C"
compound=O=C(N[C@H]1CC[C@H](CCN2CCN(c3nccc4c3OCC4)CC2)CC1)c1ccc(C(F)(F)F)cc1 meas_value="242 °C"
compound=COc1cc(COc2nn(-c3ccccc3)cc2C=O)ccc1OCc1nc(-c2ccccc2)oc1C meas_value="142 to 143 °C"
compound=COc1ccc(Cn2cnc3c(-c4ccco4)nc(OC(C)C)nc32)cc1 meas_value="145 to 146 °C"
compound="CCC(C)COC(=O)Oc1ccc(-c2ccc(O)cc2)cc1 (stereo not given)" meas_value="129 to 130 °C"
compound=NC(=O)c1cc(Cl)c(F)c(Cl)c1F meas_value="145 to 147 °C"
compound=Nc1c(F)cc(C=O)c(F)c1Br meas_value="132 to 133 °C"
compound=CCOC(=O)c1c(Br)cnn1-c1c(Cl)cccc1Cl meas_value="62 to 65 °C"
compound=O=C(O)COc1cc2onc(-c3ccccc3F)c2cc1Br meas_value="223 to 224 °C"
compound=Cc1ccsc1C(=O)Nc1ccc(C(=O)N2Cc3cccn3Cc3ccccc32)cc1 meas_value="232 to 235 °C"

----------
observed_property: melting point

compound=CN1CCC(Cc2nc3ccccc3n2Cc2ccc(CO)o2)CC1 observed_property="melting point" meas_value="158 °C"
compound=c1ccc(CC[C@H]2CN(Cc3ccccc3)CCN2Cc2ccccc2)cc1 observed_property="melting point" meas_value="86 to 90 °C"
compound="COc1ccc(Cl)cc1C(=O)NC1COc2cc(C)ccc2C1=O (stereo not drawn)" observed_property="melting point" meas_value="177 to 178 °C"

----------
observed_property: melting point

molecule="CC(=O)N1c2ccccc2-c2c([N+](=O)[O-])cnn2C1c1ccccc1 (stereo not drawn)" observed_property="melting point" meas_value="156 to 157 °C"
molecule=COc1cccc2c(CCO)c(C)oc12 observed_property="melting point" meas_value="58 to 59 °C"
molecule="COC(=O)C1Cc2c([nH]c3ccccc23)C(c2ccoc2)N1 (stereo not drawn)" observed_property="melting point" meas_value="130 °C"
molecule=Cc1c(-c2ccccc2)n(-c2c(F)c(F)c(F)c(F)c2F)c(-c2ccccc2)cc1=O observed_property="melting point" meas_value="192 to 194 °C"
molecule=COCOc1ccc(C=C[N+](=O)[O-])cc1OCc1ccccc1 observed_property="melting point" meas_value="75 to 76 °C"
molecule=CN1C(=O)C(C)(C)N=C(c2ccccc2Cl)c2cc(N)ccc21 observed_property="melting point" meas_value="85 to 110 °C"
molecule=COc1ccc2c(-c3ccc(Cl)cc3)noc2c1 observed_property="melting point" meas_value="148 to 149 °C"
molecule=CCCn1c(COCC)nc2c(N)nc3cc(OC4CCN(C(=O)OC(C)(C)C)CC4)ccc3c21 observed_property="melting point" meas_value="194 to 195 °C"

----------
Recorded melting point values for a group of compounds are listed next.
observed_property: melting point

query_smiles=O=C(Nc1ccc(S(=O)(=O)C(F)(F)F)cc1)Nn1cnc2ccccc2c1=O meas_value="118 to 121 °C"
query_smiles=Cc1cccc(C)c1NC(=O)c1cc(CO)on1 meas_value="95 °C"
query_smiles=Cc1nc2cc(Oc3cc(-c4ccc(C(C)(C)C)cc4)ncn3)ccc2s1 meas_value="163 to 165 °C"
query_smiles=CN(C)c1ccc2nc(N)c(C#N)c(O)c2c1 meas_value="360 °C"
query_smiles=N#Cc1c(-c2cccc(N)c2)cc(-c2ccccc2O)nc1NC(=O)C1CCCCC1 meas_value="236 to 238 °C"
query_smiles=CCCCc1c(-c2ccncc2)[nH]c(-c2ccncc2)c1C(=O)OCC meas_value="256 to 258 °C"
query_smiles=O=c1ccc2c(OS(=O)(=O)C(F)(F)F)cccc2o1 meas_value="104 to 105 °C"

----------
observed_property: melting point

compound=CCCn1nnn(-c2cc(OC(C)C)c(F)cc2F)c1=O observed_property="melting point" meas_value="76.5 to 77 °C"
compound=NNc1cc2ccccc2cc1C(=O)O observed_property="melting point" meas_value="> 300 °C"
compound=O=C(c1cccnc1)c1ccc([N+](=O)[O-])c(CO)c1 observed_property="melting point" meas_value="184 °C"
compound=COc1ccc2[nH]c(-c3cccc(C)c3)cc(=O)c2c1 observed_property="melting point" meas_value="262 to 264 °C"
compound=CCOC(=O)[C@H]1O[C@@H]1C(=O)N[C@H](COCC(C)C)C(C)C observed_property="melting point" meas_value="40.5 to 45 °C"
compound=C=C(Cl)c1c(C(F)(F)F)nc(C)[nH]c1=O observed_property="melting point" meas_value="164 to 166 °C"
compound=COc1cc(-c2cnc3ccccc3n2)cc([N+](=O)[O-])c1O observed_property="melting point" meas_value="195 to 197 °C"
compound=CCCCNC(=O)N1Cc2ccccc2CCC1=O observed_property="melting point" meas_value="84.5 to 85 °C"
compound=O=C(Nc1cc(Cl)cc(Cl)c1)C(Cl)Cl observed_property="melting point" meas_value="133 to 135 °C"
compound="CC(C)(C)C(O)(COc1ccc(Cl)cc1)c1cncnc1 (stereo not given)" observed_property="melting point" meas_value="172 to 174 °C"

----------
Recorded melting point values for a group of molecules are listed next.
observed_property: melting point

molecule=Fc1ccc(Cn2c(NC3CCN(CCc4ccccn4)CC3)nc3cncnc32)cc1 observed_property="melting point" meas_value="172 °C"
molecule="COc1ccc(CC(=O)NC(NC(=NC#N)Nc2cc(C)ccc2C)C(C)(C)C)cc1OC (configuration not stated)" observed_property="melting point" meas_value="93 to 94 °C"
molecule=CC1(C)CC(=O)C2=C(C1)NC1=C(C(=O)CC(C)(C)C1)C2c1cc(Br)cc(Br)c1 observed_property="melting point" meas_value="288 to 290 °C"
molecule=CN1CCN(c2nc(Nc3cccc(NS(C)(=O)=O)c3)nc3[nH]cnc23)CC1 observed_property="melting point" meas_value="148 to 151 °C"
molecule="CC(C)(C)c1ccc2c(c1)-c1c(c(C(=O)C(C#N)C(=O)Nc3ccccc3)nn1-c1ccccc1)CO2 (configuration not stated)" observed_property="melting point" meas_value="270 to 273 °C"
molecule=COc1nc(C)cnc1NS(=O)(=O)c1cccnc1-c1ccc(CC(C)C)cc1 observed_property="melting point" meas_value="128 to 129 °C"
molecule=CC(=O)SCC1=C(CSC(C)=O)C(=O)C(CSC(C)=O)=C(CSC(C)=O)C1=O observed_property="melting point" meas_value="133 to 135 °C"
